Provenance of the data: PubChem BioAssay AID624365

# activity change, negative = cytotoxicity listing for each entry below
- TEST_DESCRIPTION: cytotoxicity in HepG2 hepatoma cells – cell-based, CellTiter-Glo luminescence, dry powder, cytotoxicity control for LMP1 inhibitor project, dose response (AID 624365)
- CONDITION_INFO: HepG2 viability, CellTiter-Glo luminescence, 48 h; at 19.5 µM (top of the series)
Results filed as inconclusive are left out.
READOUT_NAME: activity change, negative = cytotoxicity (%)

> print(dat)
                                    molecule                              readout.name  value.reported
 1        COc1ccc(C(=O)Nc2ccc3[nH]ccc3c2)cc1  activity change, negative = cytotoxicity             1.7
 2  C/C(=N\NC(=S)N1CC2CCC(CC2)C1)c1cccc(C)n1  activity change, negative = cytotoxicity           -9.43
 3  Cc1c(NC(=O)c2cccc(NC(=O)COc3ccccc3C#N)c2)c(=O)n(-c2ccccc2)n1C  activity change, negative = cytotoxicity           0.795
 4  O=C(Nc1cc(C(F)(F)F)cc(C(F)(F)F)c1)Nc1cnn(-c2ccc([N+](=O)[O-])cc2)c1C(F)(F)F  activity change, negative = cytotoxicity            11.8
 5     COc1ccc(-c2cc3nc4n(c(=O)c3s2)CCC4)cc1  activity change, negative = cytotoxicity           -14.3
 6  C[C@@H]1CCCCO[C@H](CN(C)C(=O)c2ccccc2)[C@H](C)CN([C@@H](C)CO)C(=O)c2cc(NC(=O)Nc3ccc(F)cc3)ccc2O1  activity change, negative = cytotoxicity           -6.27
 7  O=C(CCc1ccccc1)NC(c1cccs1)c1cc(Cl)c2cccnc2c1O (configuration not stated)  activity change, negative = cytotoxicity            1.94
 8  CCc1ccc(/C=C2\SC(=S)N(CCCC(=O)Nc3ccccn3)C2=O)cc1  activity change, negative = cytotoxicity            -1.2
 9  C[C@@H]1CCCCO[C@H](CN(C)CC2CCCCC2)[C@H](C)CN([C@@H](C)CO)C(=O)c2cc(NC(=O)NC3CCCCC3)ccc2O1  activity change, negative = cytotoxicity          -0.214
10  C[C@H](CO)N1C[C@H](C)[C@@H](CN(C)CC2CCCCC2)OCCCC[C@H](C)Oc2ccc(NC(=O)Nc3cccc4ccccc34)cc2C1=O  activity change, negative = cytotoxicity            -6.9
11  Cc1ccc(S(=O)(=O)NC(CC(C)C)C(=O)NCC(c2ccco2)N2CCCCC2)cc1 (configuration not stated)  activity change, negative = cytotoxicity            14.4
12  Oc1cccc(C(Nc2nccs2)c2ccc3cccnc3c2O)c1 (configuration not stated)  activity change, negative = cytotoxicity            3.87
13  C[C@@H]1CCCCO[C@H](CN(C)C(=O)NC2CCCCC2)[C@H](C)CN([C@@H](C)CO)C(=O)c2cc(NC(=O)C3CCCCC3)ccc2O1  activity change, negative = cytotoxicity              11
14  CC12CCC3C(CC=C4CC(O)CCC43CO)C1CCC2OC(=O)c1ccccc1 (configuration not stated)  activity change, negative = cytotoxicity           0.538
15               CSC(=S)N/N=C(\C)c1cccc(C)n1  activity change, negative = cytotoxicity            1.36
16  CCc1ccc(/C=C/C(=O)C2C(=O)c3ccccc3C2=O)cc1  activity change, negative = cytotoxicity           -7.16
17  C[C@@H]1CCCCO[C@H](CN(C)S(=O)(=O)c2ccccc2)[C@@H](C)CN([C@@H](C)CO)C(=O)c2cc(N(C)C)ccc2O1  activity change, negative = cytotoxicity          -0.756
18   COc1ccc(-c2csc3ncnc(NCCN4CCOCC4)c23)cc1  activity change, negative = cytotoxicity           -1.72
19  C=C1C[C@]23C[C@@]1(O)CC[C@@H]2c1cccc(C)c1[C@@H]3C(=O)O  activity change, negative = cytotoxicity           -23.5
20  CCN1CCN(C(c2cccnc2)c2cc(Cl)c3cccnc3c2O)CC1 (configuration not stated)  activity change, negative = cytotoxicity           -19.9
21  Cc1ccc(S(=O)(=O)Nc2ccc3c(c2)C(=O)N([C@@H](C)CO)C[C@H](C)[C@@H](CN(C)C(=O)CCC(F)(F)F)OCCCC[C@H](C)O3)cc1  activity change, negative = cytotoxicity            1.23
22      O=C1/C(=C/c2ccncc2)SC(=S)N1Cc1ccccc1  activity change, negative = cytotoxicity           -5.23
23  Cc1ccc(NC(=O)C2CCN(S(=O)(=O)c3ccc4c(c3)NC(=O)C(C)S4)CC2)cc1Cl (configuration not stated)  activity change, negative = cytotoxicity           -15.1
24  CC1=C(C(=O)OCc2ccc3c(c2)OCO3)C(c2ccc(F)cc2)NC(=O)N1 (configuration not stated)  activity change, negative = cytotoxicity            2.83
25  C[C@@H]1CCCCO[C@H](CN(C)C(=O)CCC(F)(F)F)[C@H](C)CN([C@@H](C)CO)C(=O)c2cc(NC(=O)CCC(F)(F)F)ccc2O1  activity change, negative = cytotoxicity            6.76
26  C[C@@H]1CCCCO[C@@H](CN(C)Cc2ccccc2)[C@H](C)CN([C@H](C)CO)C(=O)c2cc(NC(=O)Nc3ccc4c(c3)OCO4)ccc2O1  activity change, negative = cytotoxicity           -6.99
27  C[C@@H]1CN([C@@H](C)CO)C(=O)c2cc(NC(=O)Nc3ccc(C(F)(F)F)cc3)ccc2O[C@@H](C)CCCCO[C@H]1CN(C)Cc1ccc(C(F)(F)F)cc1  activity change, negative = cytotoxicity           -1.82
28  C=CCN1Cc2ccccc2[C@@H]2OC(c3ccc(OCCCO)cc3)=N[C@]2(CCC(=O)OC(C)(C)C)C1=O  activity change, negative = cytotoxicity            4.76
29           c1ccc(-c2cn3c4c(sc3n2)CCCC4)cc1  activity change, negative = cytotoxicity           -13.4
30        CCCSc1nnc2c3ccccc3n(Cc3ccccc3)c2n1  activity change, negative = cytotoxicity           -1.67
31               CCc1sc(C(=O)Nc2ncccc2O)cc1C  activity change, negative = cytotoxicity          -0.832
32  CC1CN(C(=O)CSc2nnc3c4ccccc4n(Cc4cccc(Cl)c4)c3n2)CCN1C(=O)c1ccccc1F (configuration not stated)  activity change, negative = cytotoxicity           -2.74
